B1: H2-Kb / Ed23 (parent complex)
chain 1: QQKVQQSPESLTVSEGAMASLNCTFSDRSSDNFRWYRQHSGKGLEVLVSIFSDGEKEEGSFTAHLNRASLHVFLHIREPQPSDSALYLCAVRGFWTNKVVFGTGTRLQVLP
chain 2: AQTIHQWPVAEIKAVGSPLSLGCTIKGKSSPNLYWYWQATGGTLQQLFYSITVGQVESVVQLNLSASRPKDDQFILSTEKLLLSHSGFYLCAWSPRQSSYEQYFGPGTRLTVL
chain 3: not shown
chain 4: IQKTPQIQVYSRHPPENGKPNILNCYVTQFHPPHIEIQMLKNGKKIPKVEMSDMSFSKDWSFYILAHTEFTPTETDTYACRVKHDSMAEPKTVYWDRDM
chain 5: SIINFEKL

- Variants of: B1
- ASSAY COMMENT: % of reporter cells activated (NFAT-GFP), raw; further: test concentration or dose not given here
RECORDED METRIC: ratio to parent

// worked examples, ratio to parent included
ALTERATION | ratio to parent
chain 5 F5Q | 1.41
chain 5 N4A | 0.18
chain 5 I3E | 1.21
chain 5 L8W | 0.934
chain 5 N4C | 0.108

[1] chain 5 S1E
[2] chain 5 E6V
q: Compare 1 and 2 by numeric ratio to parent and name the larger one. Answer with the label corresponding to your selection.
a: 1
(1: 1.27, 2: 0.0859)
